Taken from patent US4201790A.

Experiment: Acute toxicity, mouse, oral
Conditions: in vivo
Measured Parameter: LD50

> print(dat)
                                   compound  measurement
1  Cc1ccc(C(=O)c2c(C)cc(C)cc2OCC(O)CNC(C)C)cc1 (racemic) [B]  ~1000 mg/kg

* * *

Test: Acute toxicity, mouse, intravenous
Details: in vivo, read-out: i.v. LD80
// reported LD50 per item
Measured Parameter: LD50 (mg/kg)

> print(dat)
                                   compound  measurement
1  Cc1ccc(C(=O)c2c(C)cc(C)cc2OCC(O)CNC(C)C)c(C)c1 (racemic)           24
2  Cc1cc(C)c(C(=O)c2ccccc2)c(OCC(O)CNC(C)C)c1C (racemic)           23
